# experiment description: Compound solubility in CP ELISA assay buffer
# Type: physicochemical
# condition set: aqueous buffer
reported endpoint: solubility

Ask | Tell me measured solubility for Cc1ccnn1-c1cccc(NC(=O)CC2OC(=O)c3ccccc32)c1 (stereo not shown) please.
Reply | ~600 µM

These measurements were taken from paper PMC5417336.
